The reported measurements were obtained from PubChem BioAssay (NCI).

test: NCI Yeast Anticancer Drug Screen. Data for the rad50 strain (AID 155);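 further: 0% = growth of vehicle-only cultures of the same strain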; conditions: S. cerevisiae rad50 strain growth inhibition; at 5.0 µM (retest, dose inferred, filed as 0.5); active compounds read high
This is part of a sample that, as a whole, favours compounds with a hit. Of some 79,000 tested, about 15% had one in any assay.
reported endpoint: growth inhibition (%)
Numbers only here, please. The scale is %.

Example results:
O=C(/C=C\c1ccccc1)N1c2ccccc2CC1c1c[nH]c2ccccc12 (stereo not given); -10
Clc1ccc(-c2noc(CN3CCCCC3)n2)cc1; 10
CCC(CC)COC(=O)c1ccc(O)c(O)c1; -6
Cc1c[n+](=O)c2ccccc2n1[O-]; -21

input: Recall and state the measured growth inhibition for CCOC(=O)N1CCN(CCCOc2ccc(Cl)cc2Cc2ccccc2)CC1 .
output: 29

input: Identify the reported growth inhibition for the following entry. Cc1ccc(S(=O)(=O)NC(=O)CC2CCCCC2)cc1
output: 14

input: Recall and state the measured growth inhibition for N#CC1C=C(Cl)c2ccc(Cl)cc2N1C(=O)c1ccccc1 (stereo not given) .
output: 2

input: Assign growth inhibition to the following record: CCC(CC)(C(=O)Nc1ccc2c(c1)c(=O)c1ccccc1n2C)C(=O)Nc1ccc2c(c1)c(=O)c1ccccc1n2C
output: 7

input: Please report growth inhibition for the following molecule: CCCCCCCCCCCC(=O)OCC1OC(n2cc(F)c(=O)[nH]c2=O)C(N)C(O)C1O (stereo not given)
output: 34

input: Input O=[N+]([O-])C1C(c2ccccc2)CC=CC1N1CCCC1 (stereo not given) , output reported growth inhibition.
output: 2

input: Answer with the recorded growth inhibition for the molecule listed here: CCCCC(CC)(CCC)CCN (stereo not given)
output: 1

---

assay: NCI Yeast Anticancer Drug Screen. Data for the mlh1 rad18 strain (AID 175); conditions: S. cerevisiae mlh1 rad18 strain growth inhibition; at 50.0 µM (retest, dose inferred, filed as 5.0); active compounds read high
This is part of a sample that, as a whole, favours compounds with a hit. Of some 79,000 tested, about 15% had one in any assay.
fulfilled means recorded growth inhibition is 30% or above; not fulfilled means it is below 30%.

A selection of reference data follows.
CCCCCCCCCCCCCC(=O)OCC(O)CO (stereo unspecified); not fulfilled
O=C1Nc2ccccc2NC(=O)C(=C(c2ccccc2)c2ccccc2)C1=C(c1ccccc1)c1ccccc1; fulfilled
CC(=O)N1c2ccccc2C2=NN=C(N(C)C)SC21 (stereo unspecified); fulfilled
CC(=O)c1c(CO[N+](=O)[O-])n([O-])c2ccccc2[n+]1=O; fulfilled

Next, consider the following molecule.
input: Confirm if growth inhibition reported for the molecule O=C1NC(=O)/C(=C/C=C/c2ccccc2)S1 is 30% or above.
output: fulfilled

---

test: NCI Yeast Anticancer Drug Screen. Data for the rad50 strain (AID 155);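 further: 0% = growth of vehicle-only cultures of the same strain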; conditions: S. cerevisiae rad50 strain growth inhibition; at 50.0 µM; active compounds read high
Compounds without any hit were thinned out: in the full panel of roughly 79,000, 15% have a hit.
Overview of reported growth inhibition across a group of compounds:
Just the number please, in %, no unit attached.

Example results:
O=C1C=CC(=O)c2c(O)c(N3CCN(CCO)CC3)c(Cl)c(O)c21; 84.7
CCCc1cc(=O)oc2c3c(c4c(c12)OC(C)(C)C=C4)O[C@@H](C)[C@H](C)[C@H]3O; 96.7
COc1ccc2c(c1)CC[C@@H]1[C@@H]2CC[C@]2(C)/C(=N/OCCN3CCCCC3)CC[C@@H]12; 76.3
CCCCCCCCCCCCOC(=O)C[n+]1cccc(C(=O)Nc2ccc(Cl)cc2)c1; 98.8
S=C(N/N=C(/c1ccccc1)c1ccccn1)Nc1cccc(Cl)c1; 2.05
CC(=O)O/C=C\COC(C)=O; 79.8
COC1/C=C/OC2(C)Oc3c(C)c(O)c4c(c3C2=O)C(=O)C=C(NC(=O)/C(C)=C\C=C\C(C)C(OC=O)C(C)C(O)C(C)C(OC(C)=O)C1C)C4=O (configuration not stated); 47
c1cc(NC2CCCCC2)ccc1CN1CCOCC1; 55.3
C=C1CC(Cn2ccc(=O)[nH]c2=O)(c2ccc(Cl)cc2)OC1=O (configuration not stated); 47.9
O=C(CCN1CCCCC1)/C(=C\c1ccc(Cl)cc1)c1ccccc1; 99

input: Return growth inhibition (reported value) for this compound: CC(C(O)c1ccccc1)[N+](=O)[O-] (configuration not stated)
output: 97

input: Read off the recorded growth inhibition for O=C1C=CC(=O)N1C1c2ccccc2-c2ccccc21
output: 99.5
